Just for reference, ChEMBL document CHEMBL3414446 is where these values come from.

I'd be grateful if you could share measured IC50 for these entries.
system: Influenza A virus; assay: Antiviral activity against amantadine and ribavirin-resistant influenza A virus A/HuNan-huHui/1222/2010 (H3N2) strain; type: functional, organism-based

>>> df
                                   molecule  measure_name    reading
0        NC12CC3CC(CC(C3)C1)C2 [AMANTADINE]          IC50   > 200 µM
1  C=CC(C)(C)c1[nH]c2ccccc2c1/C=c1\[nH]c(=O)c(=C)[nH]c1=O [NEOECHINULIN B]          IC50    22.2 µM
2  CCOC(=O)C1=C[C@@H](OC(CC)CC)[C@H](NC(C)=O)[C@@H](N)C1 [OSELTAMIVIR]          IC50  > 20.5 µM

Query :: Request the reported IC50 associated with NC(=O)c1ncn([C@@H]2O[C@H](CO)[C@@H](O)[C@H]2O)n1 [RIBAVIRIN]
Result :: > 150 µM
